test system: plasma protein; experiment: Plasma protein binding by rapid equilibrium dialysis (RED) in K3-EDTA plasma from donors; format: in vitro ADME, human; conditions: human, K3-EDTA plasma (fresh, from three donors), following storage at -80°C ±10°C for ≥91 days; read-out: PPB
Readout name: fraction unbound at 8 h, 500 ng/mL

| Given smiles | Readout name | Result |
| --- | --- | --- |
| COc1ccc2[nH]c3c(c2c1)CCN[C@]31CS[C@@H]2c3c(OC(C)=O)c(C)c4c(c3[C@H](COC1=O)N1[C@@H]2[C@H]2c3c(cc(C)c(OC)c3O)C[C@@H]([C@@H]1O)N2C)OCO4 | fraction unbound at 8 h, 500 ng/mL | < 0.01 |
